Numbers sourced from patent US20090117083A1.

System: Naringinase
Experiment: Glycosidase inhibition: Naringinase
Assay type: biochemical, Penecillium decumbens
Conditions: 1 mg/ml
Reported % inhibition, Naringinase values follow for various compounds
Assay readout: % inhibition, Naringinase (%)

{"columns": ["Compound", "System under test", "Scale unit", "Number"],
 "data": [
  ["OC[C@H]1[C@@H](O)[C@H](O)[C@H]2[C@@H](O)[C@@H](O)CN21 [3,7-diepi-casuarine (10)]", "Naringinase", "%", 6],
  ["O[C@H]1[C@H](O)[C@@H](O)CN2CC[C@H](O)[C@H]12 [Castanospermine (20), Castanospermine, reference compound]", "Naringinase", "%", 39],
  ["COc1cc([C@H]2N[C@H](CO)[C@@H](O)[C@@H]2O)ccc1O [Compound 65, PLB2]", "Naringinase", "%", 4],
  ["OC[C@H]1[C@@H](O)[C@H](O)[C@H]2[C@@H](O)[C@H](O)CN21 [Compound 12, 3,6,7-triepi-casuarine]", "Naringinase", "%", 0],
  ["OCC1N[C@H](CO)[C@@H](O)[C@@H]1O (stereo partly drawn) [DMDP]", "Naringinase", "%", 0],
  ["OC[C@@H]1[C@@H](O)[C@H](O)[C@H]2[C@H](O)[C@@H](O)CN21 [casuarine (8)]", "Naringinase", "%", "−2"],
  ["O[C@@H]1[C@@H]2[C@@H](O)[C@H](O)[C@H](O)CN2C[C@H]1O [Compound 35, 2-α-hydroxy-6-epi-castanospermine]", "Naringinase", "%", 0],
  ["O[C@@H]1[C@@H]2[C@@H](O)[C@H](O)[C@@H](O)CN2C[C@@H]1O [Compound 44, 2-β-hydroxycastanospermine]", "Naringinase", "%", 6],
  ["OC[C@H]1[C@@H](O)[C@H](O)[C@H]2[C@H](O)[C@@H](O)CN21 [3-epi-casuarine (14), 3-epi-casuarine]", "Naringinase", "%", 21]
]}
